These entries and their values trace back to ChEMBL document CHEMBL1201862.

- Test system: SK-MEL-5
- experiment_summary: NCI tumour cell line growth inhibition, 48 h
Active and inactive are the calls of the source. Rule as the data show it: active = GI50 up to about 1.1 µM and inactive = higher.
Choose the fitting class; nothing outside yes (active), no (inactive) is accepted.

-- ask GET /call?item= CC(C)CCNC(=O)c1ccc(CNC(=O)/C=C/c2csc(-c3ccccc3)n2)cc1 returns the recorded outcome of this test.
-- reply no

-- ask GET /call?item= COC12C=CC(C=C1C#N)CC2.COC12C=CC(CC1)CC2=O (stereo not drawn) returns the recorded outcome of this test.
-- reply no

-- ask GET /call?item= CC1CNC(c2ccc3c(c2)Cc2cc(C4=NC(C)CN4)ccc2-3)=N1 (stereo not drawn) returns the recorded outcome of this test.
-- reply no

-- ask GET /call?item= COC(=O)c1sc(C(=O)OC)c2c1CSC2 returns the recorded outcome of this test.
-- reply no

-- ask GET /call?item= CCOC(=O)/C=C(\C(=O)OCC)n1cc(C)c(=O)n(Cc2cn(COCCOC(C)=O)nn2)c1=O returns the recorded outcome of this test.
-- reply no

-- ask GET /call?item= O=C1N2CCC[C@H]2CS1(=O)=O returns the recorded outcome of this test.
-- reply no

-- ask GET /call?item= CCCNC(=S)N/N=C(\C)c1ccc(S(=O)(=O)N(C)c2ccccc2)cc1 returns the recorded outcome of this test.
-- reply no

-- ask GET /call?item= CC(=O)Nc1ccc(-c2nnc(SCC(=O)Nc3ccc(Cl)cc3Cl)o2)cc1 returns the recorded outcome of this test.
-- reply no

-- ask GET /call?item= COc1ccc(C(=O)c2nc3ccccc3nc2N2CCN(c3ccccc3)CC2)cc1OC returns the recorded outcome of this test.
-- reply no

-- ask GET /call?item= CCOC(=O)c1cc(/C=C/C(C)=C/C(=O)OC)oc1-c1ccccc1 returns the recorded outcome of this test.
-- reply no

-- ask GET /call?item= O=c1[nH]nc2c3n[nH]c(=O)n3c3ccccc3n12 returns the recorded outcome of this test.
-- reply no

-- ask GET /call?item= COc1ccc(C2SC(=N)Nc3c2c(C)nn3C(=O)c2ccncc2)cc1OC (stereo not drawn) returns the recorded outcome of this test.
-- reply no

-- ask GET /call?item= COc1cc2c(cc1OC)C1c3ccccc3CCCN1CC2 (stereo not drawn) returns the recorded outcome of this test.
-- reply no

-- ask GET /call?item= N#CC1=C(N)OC2=C(CCCc3ccccc32)C1c1ccc([N+](=O)[O-])cc1 (stereo not drawn) returns the recorded outcome of this test.
-- reply no

-- ask GET /call?item= CC(C)(C)[Si](C)(C)OCC1OC(n2ccc(=O)[nH]c2=O)C(O[Si](C)(C)C(C)(C)C)/C1=C/C#N (stereo not drawn) returns the recorded outcome of this test.
-- reply no

-- ask GET /call?item= COc1ccc(N2C(=O)C3c4[nH]c5ccccc5c4C4CCC(C(C)(C)C)CC4C3C2=O)cc1OC (stereo not drawn) returns the recorded outcome of this test.
-- reply no

-- ask GET /call?item= CCCCCCCCCCCCCCCCCC(=O)NCC(COP(=O)(O)O)OCC (stereo not drawn) returns the recorded outcome of this test.
-- reply no

-- ask GET /call?item= C#CCCCCC#Cc1ccccc1C(=O)OC returns the recorded outcome of this test.
-- reply no

-- ask GET /call?item= CCNC(=O)OCc1c(COC(=O)NCC)c(-c2ccc(Cl)c(Cl)c2)n2c1CCC2 returns the recorded outcome of this test.
-- reply no

-- ask GET /call?item= O=C1C=C2CO[C@H]3OC[C@H](O)[C@@H]1[C@@H]23 returns the recorded outcome of this test.
-- reply no

-- ask GET /call?item= Cc1ccc(C(=O)O/N=C2/CCC/C2=C\c2ccccc2)cc1 returns the recorded outcome of this test.
-- reply no

-- ask GET /call?item= CC(=O)OCC(=O)OC[C@H](OCc1ccccc1)[C@@H]1[C@H](OC(C)=O)C(=O)N1Cc1ccccc1 returns the recorded outcome of this test.
-- reply no

-- ask GET /call?item= Nc1nccc(Nc2ccc(S(N)(=O)=O)cc2)n1 returns the recorded outcome of this test.
-- reply no

-- ask GET /call?item= OCCCCn1cc(Cn2ncc3c(NCc4ccccc4)ncnc32)nn1 returns the recorded outcome of this test.
-- reply no

-- ask GET /call?item= CC1CC2OC(=O)CC2C[C@@H]1O[Si](C)(C)C(C)(C)C (stereo partly drawn) returns the recorded outcome of this test.
-- reply no

-- ask GET /call?item= O=C(Cc1ccccc1)NN1C(=O)/C(=C\c2cccc([N+](=O)[O-])c2)S/C1=N\c1ccccc1 returns the recorded outcome of this test.
-- reply no

-- ask GET /call?item= Cc1ccc(SCC(CSCCO)OCn2cnc3c2N=C(N)NC32OCCO2)cc1 (stereo not drawn) returns the recorded outcome of this test.
-- reply no

-- ask GET /call?item= COC(=O)[C@@]12CCCC(=O)[C@@H]1[C@H]1CCCC[C@H]12 returns the recorded outcome of this test.
-- reply no

-- ask GET /call?item= CC[C@@]1(O)C(=O)OCc2c1cc1n(c2=O)Cc2cc3cc(OC)ccc3nc2-1 returns the recorded outcome of this test.
-- reply yes

-- ask GET /call?item= Cc1c(C(C)C)cc(OCCO)cc1C(C)C returns the recorded outcome of this test.
-- reply no

-- ask GET /call?item= NC(=O)CSc1nc2ccccc2c(=O)n1N returns the recorded outcome of this test.
-- reply no

-- ask GET /call?item= O=C1OC(c2ccc([N+](=O)[O-])cc2)=N/C1=C\c1ccc(Cl)cc1 returns the recorded outcome of this test.
-- reply no

-- ask GET /call?item= CN(C)C(=Nc1nc(N(C)C)s[s+]1)N(C)C returns the recorded outcome of this test.
-- reply no

-- ask GET /call?item= CN(C)c1ccc(/C=c2\sc3nnc(-c4cccnc4)n3c2=O)cc1 returns the recorded outcome of this test.
-- reply no

-- ask GET /call?item= COc1ccccc1/N=N/C(=N\NC(=O)c1ccc(C)cc1)c1ccc(N(CCC#N)CCC#N)cc1C returns the recorded outcome of this test.
-- reply no

-- ask GET /call?item= C=C1C(=O)O[C@H]2C[C@@H](C)[C@@H]3CC(=O)OC[C@@]3(C)CC12 (stereo partly drawn) returns the recorded outcome of this test.
-- reply no

-- ask GET /call?item= Cc1ccc(S(=O)(=O)NC(=O)C2S(=O)(=O)OCCOS2(=O)=O)cc1 returns the recorded outcome of this test.
-- reply no

-- ask GET /call?item= CC(=O)Nc1ccc(N2C(=O)CS(=O)(=O)C2c2cccc(Oc3ccccc3)c2)cc1 (stereo not drawn) returns the recorded outcome of this test.
-- reply no

-- ask GET /call?item= CN(/N=C/C=N/N(C)C1=NCCCCN1)C1=NCCCCN1 returns the recorded outcome of this test.
-- reply no

-- ask GET /call?item= S=C(NN=C1NCCCCN1)Nc1ccccc1 returns the recorded outcome of this test.
-- reply no

-- ask GET /call?item= COc1ccc(NC(=S)Nc2c(C)n(C)n(-c3ccccc3)c2=O)cc1 returns the recorded outcome of this test.
-- reply no

-- ask GET /call?item= S=C(Nc1c2c(nc3ccccc13)CCCC2)Nc1c2c(nc3ccccc13)CCCC2 returns the recorded outcome of this test.
-- reply no

-- ask GET /call?item= CSc1c(C#N)c(S)n(-c2ccc(Cl)cc2)c(=O)c1C#N returns the recorded outcome of this test.
-- reply no
